Taken from the nanobody polyreactivity screen of Harvey et al. (2022).

- test_protocol: yeast display, Sf9 membrane polyspecificity reagent, FACS + sequencing; frameworks hold sequencing errors
measured_quantity: polyreactivity (PSR sort gate)

QVQLVESGGGLVQAGGSLRLSCAASGFTFRVYAMGWNRQAPGKEREFVASITWGGGRPYYADSVKGRFTISRDNAKNTVYLQMNSLKPEDTAVYYCAAYGRLDSYVSYYYWGQGTQVTVSS high polyreactivity
QVQLVESGGGLVQAGGSLRLTSADTGFNFGSYAMGWSRQAHGKEREFVAAISSNGGNTYYADSVKGRFTISRDNAKNTVYLEINSLKPEDTAVSYCAARYPSGTRKWYGYWGQGTQVTVSS high polyreactivity

###

- test_protocol: yeast display, Sf9 membrane polyspecificity reagent, FACS + sequencing; frameworks hold sequencing errors
measured_quantity: polyreactivity (PSR sort gate)

PVQLVESGGGLVQAGGSLRLSCAASGSIFAVNALGWSRQAPGKERELVAAITSGGNTYYADSVKGRFTISRDNAKNTVYLQMNSLKPEDTAVYDCATVFSVQGWYFGMNYWGQGTQVTVSS low polyreactivity
QVQLVESGGGLVQAGGSLRLSCAASGSTFNIYVMGSYREPPGKERELVAAITTSGRTYYADSVKGRFTISRDNAKNTVYLQMNSLKPEDNAVYYCAAATGTYGRGGYYWGQGTQVTVSS high polyreactivity
QVQLVESGGGVVQAGGSLRLSCAASGSTIYRYAMGWYRQAPGKEREFVPAITRTTARTYYADSVKGRFTFSRDNAKNTVYLQMNSLKPEDTAVYYCAADLYSWTWSGFRQYDSWGQGTQVTVSS high polyreactivity
QVQLVESGGGLVQAGGRLRLICAASGRTFVVNAMGWYRQAPGQERELVAAITRRAGITYYADSVKGRFTISRDNAKNTVYLQMNSLKPEDTAVYYCAADRSYFPDTRTTYGYNYWGQGTQVTVSS low polyreactivity

Now for a further sequence.
The reported value for "QVQLVESGGVLVQAGGSLRLSCAASGFTFNYYVMGWYRQAPWKERELVATITSVGSTYYADSVKGRFTISRDNAKNTVYLQMNSLKPEDTAVYYCNADWYWRVYWGQGTQVTVSS" in terms of polyreactivity (PSR sort gate) is high polyreactivity

###

- test_protocol: yeast display, Sf9 membrane polyspecificity reagent, FACS + sequencing; frameworks hold sequencing errors
measured_quantity: polyreactivity (PSR sort gate)

Example cases with answers are listed next.
QVQLVESGGGLVQAGGSLRLSCAGSGRIFREYPMGAYRHAPGKARELVAAITASGGGTYYADSVKGRFTLSRDNAKNTVYLQMNSLKPEDSAVYYCNAVLAPGGYDYWGQGTQVTVSS low polyreactivity
QVQLVESCGGLVQAGGSLRLSCADSGRTFGSYAMGWYRQATRKDRELVASISRSGGTTYYADSVKGRFTLSRDNAKNTVYLQMYSQKPEDTAVYYCAAQYVRYGLYYWGQGTQVTVSS high polyreactivity
QVQLVESGGGLVQAGGSLRLSCAASGRTLGTNAMGWYRQAPGKERELVAAITRNGGSTYYADSVKGRFTISRDNAKNTVYLQMNSLKPEDTAVYYCAARYFHSVGGWPVSYRYNYWGQGTQVTVSS high polyreactivity
QVQLVESGGGLVQGGGSLRLSCAASGLIFSYYAMGWYRQAPGKERELVAAISRGGATNYADSVKGRFTISRDTAKNTVYLQMNSLKPEDTAVYYCSARFVLRRDYGYWGQGTQVTVSS high polyreactivity
QVQLGESGGGLVQAGGSLRLSCAASGSTFAPYAMGWYRQAPGKERELVAAISTGGSTNYADSVKGRFTISRDNAMNTVYFQMNSLKPEDTAVYYCNTGYFVWGFDYWGQGTQVTVSS low polyreactivity

The reported value for "QVQLVESGGGLVQAGGSLRLICAASGSIFSSYAMGWYRQAPGKERELVAAITSGGSTYYADSVKGRFTISRDNAKNTVYLQMNSLKPEDTAVYYCAARQVRTSKLHMGYWGQGTQVTVSS" in terms of polyreactivity (PSR sort gate) is low polyreactivity

The reported value for "QVQLVESGGGLVQAGGSLRLSCAASGATFRIDAMGWYREAPGKERELVAAIARGGTSTYYADSVKGRFTISRDNAKNTVNLQMNSLKPEDTAVYYCAKRDQDRTFPNGYWGQGTKVTVSS" in terms of polyreactivity (PSR sort gate) is high polyreactivity

The reported value for "QVQLVESGGGLVQAGGSLRLSCAASGSTFDYYDRGWFRQAPGKERELVAAISSGGDSTYYADSVKGRFTISRDNEKNTVYLQMNSLKPEDTAVYYCAAAVYYGQSVWYYYWGQGTQVTVSS" in terms of polyreactivity (PSR sort gate) is high polyreactivity

The reported value for "QVQLVESGGGLVQAVGRLRLSCAASGLTFQYYAMGWYRQAPGKERELDAAISRSGGRSYYADSVKGRFTISRDNAKYTVYLQMISLKPEDSAVSYCNAVRRFASPTRHYYWGQGTQVTVSS" in terms of polyreactivity (PSR sort gate) is high polyreactivity

The reported value for "QVQLVESGGGLVQAGGSLRLSCAASGSSFRRYAMGWSRQAPGKERELVASITASGGSTYYADSVKGRFTISRDNAKNTVYLQMNSLKAEDTAVYYCNKDTIKSYYRRYDSWGQGTQVTVSS" in terms of polyreactivity (PSR sort gate) is low polyreactivity

The reported value for "QVQHVESGGGLVQAGGSLRLSCAASGRTFDWNAMGWYRQAPGKERELVAAITYSGGGTYYADSVKGRFTISRDNAKNTVYLQMNSLKPEETAVYYCAAGYPGTWSYYYWGQGTQVTVSS" in terms of polyreactivity (PSR sort gate) is low polyreactivity

The reported value for "HVQLVESGGGLVQAGGSLRLSCAASGSIFKRYAMGWYTQAPGKERELVAAITSGGSTNYADSVKGRFTISRDNAKNTVYLQMNSLKPEDTAVYYCAAEHDYYPSNLDYWGQGTQVTVSS" in terms of polyreactivity (PSR sort gate) is low polyreactivity
